Data provenance is patent US20160022764A1.

# Measured on: melanocortin-1 receptor (human, UniProt Q01726 1-317)
# Sequence (Q01726 whole entry): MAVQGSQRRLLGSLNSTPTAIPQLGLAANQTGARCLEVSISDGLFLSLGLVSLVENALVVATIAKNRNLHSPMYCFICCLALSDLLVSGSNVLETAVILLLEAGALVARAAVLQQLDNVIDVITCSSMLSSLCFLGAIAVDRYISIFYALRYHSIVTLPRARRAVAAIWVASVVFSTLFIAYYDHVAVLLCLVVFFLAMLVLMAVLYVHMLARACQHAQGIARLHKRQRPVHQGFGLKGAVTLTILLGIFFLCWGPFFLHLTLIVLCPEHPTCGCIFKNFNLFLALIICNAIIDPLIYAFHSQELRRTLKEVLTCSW
# Run description: cell-based or functional assay
Bridge positions count the residues as written; N and C are the ends. Square brackets hold non-standard residues; d marks the D form. Pen = CC(C)(S)[C@H](N)C(=O)O; hCys = N[C@@H](CCS)C(=O)O
Property: cAMP Assay (EC-50) (nM)
Your answer is read as nM, so omit the unit and give the number.

Binder	Property	Unit spec	Data value
Ac-R[hCys][dA][dF]RW[Pen]-NH2 (disulfide 2-7; SMILES CC(=O)N[C@@H](CCCNC(=N)N)C(=O)N[C@H]1CCSSC(C)(C)[C@@H](C(N)=O)NC(=O)[C@H](Cc2c[nH]c3ccccc23)NC(=O)[C@H](CCCNC(=N)N)NC(=O)[C@@H](Cc2ccccc2)NC(=O)[C@@H](C)NC1=O) [Compound 17: Ac-Arg-cyclo[hCys-D-Ala-D-Phe-Arg-Trp-Pen]-NH2]	cAMP Assay (EC-50)	nM	195

Consider now this further binder.
Which cAMP Assay (EC-50) is listed for Ac-RC[dA]Y[dF]RWC-NH2 (disulfide 2-8; SMILES CC(=O)N[C@@H](CCCNC(=N)N)C(=O)N[C@H]1CSSC[C@@H](C(N)=O)NC(=O)[C@H](Cc2c[nH]c3ccccc23)NC(=O)[C@H](CCCNC(=N)N)NC(=O)[C@@H](Cc2ccccc2)NC(=O)[C@H](Cc2ccc(O)cc2)NC(=O)[C@@H](C)NC1=O) [Compound 11: Ac-Arg-cyclo[Cys-D-Ala-Tyr-D-Phe-Arg-Trp-Cys]-NH2] ?
301
